# Assay info: alamarBlue cytotoxicity assay, HEK293 cells
# Type: cell-based, human
# Condition parameters: human; HEK293, 72 h exposure, alamarBlue; read-out: IC50 (cytotoxic level)
Numbered stars: 1 amine (or outer) side, 2 acyl side, 3 side chain; on linkers, the order of the positions; unused ones are H or OH. Bridge positions count the residues as written; N and C are the ends. Square brackets hold non-standard residues; d marks the D form. Peptide text beside a SMILES is read from it. X2 = CC(C)CCCCCCCCC[C@H](CC(=O)[*:1])O[*:2]
Experimental readout: IC50

Inquiry: Item CC(C)CCCCCCCCC[C@@H]1CC(=O)N[C@@H](CCC(=O)O)C(=O)N[C@@H](CC(C)C)C(=O)N[C@H](CC(C)C)C(=O)N[C@@H](C(C)C)C(=O)N[C@@H](CC(=O)O)C(=O)N[C@H](CC(C)C)C(=O)N[C@@H](CC(C)C)C(=O)O1 [Surfactin] (EL[dL]VD[dL]L; linker N-C via X2) has what recorded IC50?
Reply text: > 200 µg/mL
